residual activity values, listed per item
# system-tested: NEK7 (human)
# experiment: radiometric filter-binding kinase assay, Kinase HotSpot
# applied-conditions: compound 0.5 µM; ATP 10 µM
Give a bare numeral; the unit % is implied.

Below: 8 molecules and their reported residual activity.
1. O=C1C(Cl)=C(N2C(=O)CCC2=O)C(=O)c2ccccc21; 95.4
2. O=C(c1cc2cc(O)ccc2[nH]1)c1cc2cc(O)ccc2[nH]1; 101
3. COc1cc2ncnc(Nc3ccc(OCc4ccccc4)cc3)c2cc1OC; 101
4. Cc1nc(-c2ccccc2)c(-c2ccncc2)o1; 102
5. CN(C)S(=O)(=O)c1ccc2c(c1)/C(=C/c1cc3c([nH]1)CCCC3)C(=O)N2; 103
6. O=C1Nc2ccc(Br)cc2/C1=C\c1cc2c([nH]1)CCCC2; 103
7. CN(C)c1ccc(/C=C2\C(=O)Nc3ccccc32)cc1; 102
8. N#Cc1c[nH]c2c[nH]/c(=N\Cc3cccnc3)cc2/c1=N\c1ccc(F)c(Cl)c1; 102

The molecule listed as `COc1cc(Nc2c(C#N)cnc3cc(OCCCN4CCN(C)CC4)c(OC)cc23)c(Cl)cc1Cl` shows residual activity equal to 94.6

The reported residual activity of the molecule `Cc1cncc2cccc(S(=O)(=O)N3CCCN(C(=O)CN)C[C@H]3C)c12` was 103

Recorded result, `COc1ccc(C(=O)Nc2sc3c(c2C(N)=O)CCCC3)cc1OC` , residual activity: 99

Note to self: residual activity recorded for `N#C/C(=C\c1ccc(O)c(O)c1)C(=O)NCc1ccccc1` was 111

The molecule listed as `O=C1NC(=O)c2c1c1c3ccccc3[nH]c1n1cncc21` has a reported residual activity of 80.3

Value of residual activity reported for the molecule `CC(C)(C)c1cc(C=C(C#N)C#N)cc(Br)c1O` is 89.5

The molecule listed as `COc1ccc2c(c1)c(C1=C(c3c[nH]c4ccccc34)C(=O)NC1=O)cn2CCCN(C)C` has a reported residual activity of 99.1

Short answer for `CO[C@@H]1[C@H](N(C)C(=O)c2ccccc2)C[C@H]2O[C@]1(C)n1c3ccccc3c3c4c(c5c6ccccc6n2c5c31)C(=O)NC4` : residual activity was 101

# residual activity of `NC(=O)c1cccc(-c2cc(Nc3ccc(OC(F)(F)F)cc3)ncn2)c1` = 96.3

Kindly note the recorded residual activity for `CS(=O)(=O)CCNCc1ccc(-c2ccc3ncnc(Nc4ccc(OCc5cccc(F)c5)c(Cl)c4)c3c2)o1` , which is 98.7

residual activity for `O=C1c2ccccc2-c2nc3nnnn3nc21` is 83.6

Field residual activity (entry `COc1ccc(S(=O)(=O)N(CCO)c2ccccc2CN(C)C/C=C/c2ccc(Cl)cc2)cc1` ) reads 93.4

For `CN(C)CCCn1cc(C2=C(c3c[nH]c4ccccc34)C(=O)NC2=O)c2ccccc21` the molecule record lists residual activity as 87.1

Reported residual activity of `Ic1cccc(CSc2nnc(-c3ccncc3)o2)c1` : 102

// field: residual activity; key: `COc1cc2ncnc(Nc3ccc(Oc4ccccc4)cc3)c2cc1OC` ; value = 103

Lab note: `Cn1c2ccccc2c2c3c(c4c5ccccc5n(CCC#N)c4c21)CNC3=O` gave residual activity of 97

Field residual activity (entry `Fc1ccc(-c2nc3n(c2-c2ccncc2)CCS3)cc1` ) reads 105

Please fill in: residual activity reported for `c1ccc2c(-c3ccncc3)c[nH]c2c1` = 104

response.value for `Cc1cccc(-c2nc(C(C)(C)C)[nH]c2-c2ccc3c(c2)OCO3)n1` (field: residual activity) = 106

Recorded residual activity (molecule `COc1ccc(Cl)cc1NC(=O)Nc1cc(C)nc2ccccc12` ): 103

Briefly, residual activity measured for `CCCCc1c(-c2ccc(OC)cc2)[nH]c2nccnc12` : 107

This collection of values is drawn from the kinase profiling compilation of Christmann-Franck et al. (2016).
